Reference source: ChEMBL document CHEMBL1201862

tested on: SF-268; assay: NCI tumour cell line growth inhibition, 48 h
The source made the active and inactive calls. Cut-off read from the data, not from the text of the source: active = GI50 up to about 1.1 µM and inactive = higher.
Labels: class 1 (active), class 0 (inactive)

NC(=O)/N=C1/CCC2C3CCCC2C13    class 0
C[N+](C)(C)CC(=O)N/N=C(/C(=O)Nc1ccc(Br)cc1)C1C(=O)NC(=O)NC1=O    class 0
CC(C)NC(=O)OCc1c(COC(=O)NC(C)C)c(-c2ccc[n+](COC(=O)C3CCCCC3)c2)n2c1CCC2    class 0
Cc1c(C(=O)O)sc2nc[nH]c(=O)c12    class 0
NC(=O)NC(=O)c1cccc(C(=O)NC(N)=O)n1    class 0
CCOC(=O)C1CCn2c(nc3c2c(=O)n(C)c(=O)n3C)S1 (stereo unspecified)    class 0
CC1=NN(c2ccccc2)C(=O)C1/N=N/c1ccc(Br)cc1C (stereo unspecified)    class 0
NCC1OC(OC2C(N)CC(N)C(O)C2OC2OC(CO)C(O)C2O)C(N)C(O)C1O (stereo unspecified)    class 0
CC1CCC2C(C)C3C(CC4C5CC=C6CC(OC7OC(CO)C(O)C(OC8OC(CO)C(O)C(O)C8O)C7OC7OC(C)C(O)C(O)C7O)CCC6(C)C5CCC43C)N2C1 (stereo unspecified)    class 0
O=C(Nc1c(Cl)cc([N+](=O)[O-])cc1Cl)C(=O)C(C(=O)c1ccncc1)C1OC(=O)c2ccccc21 (stereo unspecified)    class 0
O=C(Nc1ccc(Cl)cc1)c1cc2c(cc1Cl)Sc1nccn1S2(=O)=O    class 0
CC(=O)OC1CC2CCN3C(=O)c4cc5c(cc4[C@H](C1OC(C)=O)C23)OCO5 (stereo partly specified)    class 0
COc1cccc2c1C(=O)C=CC2=O    class 0
Cc1c2cc[n+](C)cc2c(C)c2c1[nH]c1ccc(OCC(F)(F)F)cc12    class 1
CC1CC2=C(S(=O)(=O)c3ccccc3)CC(S(=O)(=O)c3ccccc3)(S(=O)(=O)c3ccccc3)CC21 (stereo unspecified)    class 0
CCCCCCCCC/C=C1\CCC(CN2CCOCC2)C1=O (stereo unspecified)    class 0
CC(C)(C)OC(=O)NCCCC(=O)NC1(c2cc3ccccc3s2)CCCCC1    class 0
O=C1c2cc([N+](=O)[O-])sc2C(=O)c2c([N+](=O)[O-])csc21    class 1
CCCNC(=S)N/C=C1\C(=O)Nc2ccccc2C1=O    class 0
CN1C(=O)C(C(=O)Nc2ccccn2)C2C[C@@]1(C)Oc1ccccc12 (stereo partly specified)    class 0
CCOC(=O)c1ccc(/N=C/c2ccc(N(CCC#N)S(=O)(=O)c3ccccc3)cc2C)cc1    class 0
CC1(C2(C)OC(=O)c3ccccc32)OC(=O)c2ccccc21 (stereo unspecified)    class 0
COc1ccc2c(c1)O[C@@H]1c3ccc(OC)cc3OC[C@H]21    class 0
CN(C)Cc1cc(C(F)(F)F)ccc1C(O)(c1ccccc1)c1ccccc1    class 0
Cn1c(=S)c2nc(SCCN3CCCC3)[nH]c2n(C)c1=O    class 0
O=C(CC(=O)n1nc(-c2ccccc2)c(/N=N/c2ccc([N+](=O)[O-])cc2)c1-c1ccccc1)Nc1ccc(Cl)cc1    class 0
C[N+](C)(CCNc1ccc(NCC[N+](C)(C)Cc2ccc([N+](=O)[O-])cc2)c2c1C(=O)c1ccccc1C2=O)Cc1ccc([N+](=O)[O-])cc1    class 0
O=C1c2ccccc2C2(c3ccc(Cl)cc3)N[C@@H]3CCCC[C@@H]3N12 (stereo partly specified)    class 0
O=c1nc(NC2CCCCO2)ccn1CCO (stereo unspecified)    class 0
O=C1/C(=C/c2ccc(Cl)cc2)CCC1CNc1ccc(Cl)cc1 (stereo unspecified)    class 0
CC(C)(C)NCCC(O)c1cc(C(F)(F)F)nc2c(C(F)(F)F)cccc12 (stereo unspecified)    class 0
CN1C=Cc2nccc3cc4c(c1c23)OCO4    class 0
CC(C)N1CC2CC(CN(C(=O)c3ccc(Cl)cc3)C2)C1    class 0
Cc1ccc(C2CC(c3cccc([N+](=O)[O-])c3)=Nc3ccccc3S2)cc1 (stereo unspecified)    class 0
Cc1cc(=O)oc2c1cc1ccc3cccc4ccc2c1c34    class 0
BrCc1ccc2ccc3ccc(CBr)nc3c2n1    class 0
CC1CC(N)=Nc2ccccc2N1Cc1ccccc1 (stereo unspecified)    class 0
Cc1c(CCN2CCOCC2)c(N2CCOCC2)n2c(nc3ccccc32)c1C#N    class 0
CC(CSc1nc2c(c(=N)n1-c1ccccc1)c(=S)n(-c1ccccc1)c(=S)n2-c1ccccc1)CN(C)C (stereo unspecified)    class 0
CC(SC(=S)N1CCOCC1)c1cc2oc(=O)n(C)c2cc1Cl (stereo unspecified)    class 0
Cc1ccc(OCC2OC(n3cnc4c(Cl)nc(N)nc43)CC2Oc2ccc(C)cc2)cc1 (stereo unspecified)    class 0
